So I've got a bunch of molecules here, and I need their Range of Increase values.
Biological target: mutant Hex A (Homo sapiens, UniProt P06865+P07686)
Type: cell-based
Conditions: range of increase in Hex A activity
Experimental: Using the graphs of FIGS. 5-7, the EC50 values for Hex A rescue were determined as well as the maximum increase and range of increase in Hex A activity. These values are tabulated in Table 2, together with the IC50 values for Hex A inhibition that were determined in Example 3.
The response must contain the number and no unit.

Quote Range of Increase reported for CCCc1nc(N)nc(N)c1-c1ccc(Cl)cc1 [zjm1-135] please.
3

Quote Range of Increase reported for CCc1nc(N)nc(N)c1-c1ccc(Cl)cc1 [PYR, Pyrimethamine, reference compound] please.
4

Quote Range of Increase reported for CCc1nc(N)nc(N)c1-c1ccc(C)cc1 [ksh3-19b] please.
4

Quote Range of Increase reported for CCc1nc(N)nc(N)c1-c1ccc(C(F)(F)F)cc1 [vsa5] please.
3

Quote Range of Increase reported for CCCc1nc(N)nc(N)c1-c1ccccc1 [ksh3-29] please.
3

Quote Range of Increase reported for CCc1nc(N)nc(N)c1-c1cccc(C)c1 [ksh3-19d] please.
5

Quote Range of Increase reported for CCCc1nc(N)nc(N)c1-c1ccc(C(F)(F)F)cc1 [zjm1-141] please.
3

Quote Range of Increase reported for CCCc1nc(N)nc(N)c1-c1ccc(C)cc1 [zjm1-137] please.
3

Quote Range of Increase reported for NCc1nc(N)nc(N)c1-c1ccc(Cl)cc1 [zjm7-27] please.
1

Quote Range of Increase reported for CCCc1nc(N)nc(N)c1-c1ccc(OC)cc1 [zjm1-139] please.
4

Quote Range of Increase reported for CCc1nc(N)nc(N)c1-c1cccs1 [zjm7-67] please.
2
